Data origin: patent US20240059758A1

- TEST SYSTEM: T1, HCoV-229E Spike protein (HCoV-229E, UniProt P15423 16-560)
- T1 sequence: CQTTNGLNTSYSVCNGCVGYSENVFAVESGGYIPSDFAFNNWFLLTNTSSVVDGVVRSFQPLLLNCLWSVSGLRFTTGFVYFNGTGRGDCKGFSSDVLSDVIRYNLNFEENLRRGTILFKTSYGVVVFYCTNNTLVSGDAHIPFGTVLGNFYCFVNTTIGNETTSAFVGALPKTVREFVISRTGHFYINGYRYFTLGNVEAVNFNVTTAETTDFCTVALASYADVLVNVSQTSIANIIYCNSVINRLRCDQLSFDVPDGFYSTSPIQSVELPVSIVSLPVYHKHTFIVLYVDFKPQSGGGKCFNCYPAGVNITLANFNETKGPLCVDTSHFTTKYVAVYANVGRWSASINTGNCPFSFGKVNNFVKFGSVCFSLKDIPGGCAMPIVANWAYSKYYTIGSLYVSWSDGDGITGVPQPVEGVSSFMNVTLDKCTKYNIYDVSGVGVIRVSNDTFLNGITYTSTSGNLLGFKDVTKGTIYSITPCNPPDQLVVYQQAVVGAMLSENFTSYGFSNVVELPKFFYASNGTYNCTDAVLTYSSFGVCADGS
- ASSAY INFO: titration ELISA

BINDER	binding result
YU505-A02 (antibody, V domains shown) VH: QVQLVESGAEVKKPGSSVKVSCKASGGTFSSYAISWVRQAPGQGLEWMGGIIPIFGTANYAQKFQGRVTITADESTSTAYMELSSLRSEDTAVYYCARQIWAYDSSGYPVPAEYFQHWGQGTLVTVSS VL: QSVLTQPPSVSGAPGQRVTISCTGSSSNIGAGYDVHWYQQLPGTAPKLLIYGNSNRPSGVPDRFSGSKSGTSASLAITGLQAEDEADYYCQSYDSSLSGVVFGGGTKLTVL	no binding
YU536-D04 (antibody, V domains shown) VH: QVQLVQSGGGLVQPGGSLRLSCAASGLTVSSNYMSWVRQAPGKGLEWVSVIYSGGSTYYADSVKGRFIISRDNSKNTLYLQMNSLRAEDTAVYYCARDLVVMGLDVWGKGTLVTVSS VL: DIQLTQSPSSLSASVGDRVTITCRASQGISSYLAWYQQKPGKAPKLLIYAASTLQSGVPSRFSGSGSGTDFTLTISSLQPEDFATYYCQQLNSYPITFGQGTKLEIK	no binding
STE90-C11 (antibody, V domains shown) VH: QVQLVESGGGLVQPGGSLRLSCAASGLTVSSNYMSWVRQAPGKGLEWVSVIYSGGSTYYADSVKGRFTISRDDSKNTLYLQMNSLRAEDTAVYYCARDVADAFDIWGQGTMVTVSS VL: DIVMTQSPSFLSASVGDRVTITCRASQGISSYLAWYQQKPGKAPKLLIYAASTLQSGVPSRFSGSGSGTEFTLTISSLQPEDFATYYCQQLNSYPPFTFGPGTKVDIK	no binding
YU537-H11 (antibody, V domains shown) VH: EVQLLESGGGLIQPGGSLRLSCAASGLTVSSNYMSWVRQAPGKGLEWVSVIYSGGSTYYADSVKGRFTISRDNSKNALYLQMNSLRAEDTAVYYCARGESGSPYGMDVWGQGTLVTVSS VL: QSVLTQPPSVSAAPGQKVTISCSGSSSNIGNNYVSWYQQLPGTAPKLLIYDTNKRPSGIPDRFSGSKSGTSATLGITGLQTGDEADYYCATWDSSLSVGVFGGGTKLTVL	no binding
